- assay: chemical genetic growth profiling, strain panel (AID 1159580);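 further: tested at 20 µM; growth read once vehicle control cultures reached saturation at 30 °C; 1 = growth at the plate median or of vehicle wells; lower values mean less growth of the strain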
- experimental.parameters: S. cerevisiae deletion strains, growth OD, locus YNL322C, strain KRE1, stronger effect = lower value
The whole screen tested about 5,500 compounds, of which about 2,000 (36%) were called active. Roughly 18% stayed inconclusive and do not appear here. The list shows a part of the results.
quantity.name: normalized growth

Here's what some known entries look like.
CC(C(=O)O)c1ccc2c(c1)[nH]c1ccc(Cl)cc12 (configuration not stated): 1.01 (inactive)
Cn1cc(C2=C(c3ccc(Cl)cc3Cl)C(=O)NC2=O)c2ccccc21: 1 (inactive)
Nc1cc(-c2ccc(Cl)cc2)nc(N)n1: 0.99 (inactive)
COC(=O)c1c(C)[nH]c(C)c1C(=O)c1ccccc1Cc1ccccc1: 1.01 (inactive)
O=C(Nc1ccccc1C(=O)Nc1ccc(Br)cc1)c1ccccc1: 1.02 (inactive)

Task item: What normalized growth value was documented for this compound, CCCC(=O)NCCc1c2n(c3ccc(OC)cc13)CCCc1ccccc1-2 ?
Reply: 1.01 (inactive)

Task item: What normalized growth value was documented for this compound, CCOC(=O)/C=C(\C)OP(=O)(OC)OC ?
Reply: 0.977 (inactive)

Task item: What normalized growth value was documented for this compound, CC(C)(C)NC(=O)N1CCN(c2nc3ccc(Cl)cc3s2)CC1 ?
Reply: 1.03 (inactive)

Task item: What normalized growth value was documented for this compound, CCCC(=O)NCCc1c2n(c3ccc(OC)cc13)Cc1ccccc1-2 ?
Reply: 0.995 (inactive)

Task item: What normalized growth value was documented for this compound, Cc1cccc(C#Cc2ccccc2)n1 ?
Reply: 0.976 (inactive)

====

Below: a set of entries, each annotated with reported normalized growth.
- assay: chemical genetic growth profiling, strain panel (AID 1159580)
- experimental.parameters: S. cerevisiae deletion strains, growth OD, locus YPL256C, strain CLN2, stronger effect = lower value
Among all 5,500 compounds or so, about 2,000 (36%) were called active. Another 18% or so got no clear call; they are omitted. Some of the results follow.
API doc: respond with a numeric literal and nothing else, no unit.

O=C(Nc1c(Br)c(C2CC2)nn1-c1ccccc1)C(Cl)(Cl)Cl: 0.961
CCC(C(=O)O)c1ccccc1 (stereo not drawn): 0.907
Cc1ccc(O)cc1: 1.03
Oc1ccc(O)cc1: 1.08
COc1ccc2c(c1)OC[C@@H](Cc1ccc(OC)c(OC)c1)[C@H]2O: 0.907

Consider now this further molecule.
Task item: What normalized growth value was documented for this molecule, COC(=O)COc1ccc(Cl)cc1Cl ?
Reply: 1.05

====

- assay: chemical genetic growth profiling, strain panel (AID 1159580)
- experimental.parameters: S. cerevisiae deletion strains, growth OD, locus YOR106W, strain vam3, stronger effect = lower value
In all, about 5,500 compounds went through this assay and about 2,000 (36%) were called active. About 18% were inconclusive and are not listed. The list shows a part of the results.
quantity.name: normalized growth
API doc: respond with a numeric literal and nothing else, no unit.

Here's what some known entries look like.
COc1ccc(C[C@H]2NC[C@H](O)[C@H]2OC(C)=O)cc1: 0.345
CCc1ccc(CCOc2ccc(CC3SC(=O)NC3=O)cc2)nc1 (stereo not drawn): 1.02

Consider now this further compound.
Task item: What normalized growth value was documented for this compound, Cc1cc(=O)c2c(O)c(C)c(O)cc2o1 ?
Reply: 1.02

====

- assay: chemical genetic growth profiling, strain panel (AID 1159580)
- experimental.parameters: S. cerevisiae deletion strains, growth OD, locus YAL040C, strain CLN3, stronger effect = lower value
Screen size: about 5,500 compounds; about 2,000 (36%) were called active. About 18% were inconclusive and are not listed. The list shows a part of the results.
quantity.name: normalized growth

Here's what some known entries look like.
COC(=O)c1c(C)[nH]c(C)c1C(=O)c1ccccc1Cc1ccccc1: 0.995 (inactive)
CCCC(=O)NCCc1c2n(c3ccc(OC)cc13)CCCc1ccccc1-2: 0.991 (inactive)

Task item: What normalized growth value was documented for this compound, CCCN1CCC[C@@H]2Cc3nc(N)ncc3C[C@H]21 ?
Reply: 1.01 (inactive)

====

Below: a set of entries, each annotated with reported normalized growth.
- assay: chemical genetic growth profiling, strain panel (AID 1159580)
- experimental.parameters: S. cerevisiae deletion strains, growth OD, locus YHR030C, strain SLT2, stronger effect = lower value
About 2,000 (36%) of roughly 5,500 compounds were called active. About 18% were inconclusive and are not listed. The list shows a part of the results.
API doc: respond with a numeric literal and nothing else, no unit.

Here's what some known entries look like.
N=c1nc(N2CCCCC2)cc(N)n1O: 0.982
COc1ccc(-c2coc3c(OC)c(O)ccc3c2=O)cc1: 0.976
O=C1CCO1: 0.984
COc1ccc(-c2cc(=O)c3c(O)cc(OC)c(OC)c3o2)c(OC)c1: 1.04

Consider now this further molecule.
Task item: What normalized growth value was documented for this molecule, CC(C)(N=NC(C)(C)C(=N)N)C(=N)N ?
Reply: 0.971

====

- assay: chemical genetic growth profiling, strain panel (AID 1159580)
- experimental.parameters: S. cerevisiae deletion strains, growth OD, locus YGL167C, strain pmr1, stronger effect = lower value
About 2,000 (36%) of roughly 5,500 compounds were called active. About 18% were inconclusive and are not listed. The list shows a part of the results.
Below: a set of entries, each annotated with reported normalized growth.
API doc: respond with a numeric literal and nothing else, no unit.

Task item: What normalized growth value was documented for this compound, CC(=O)O[C@H]1C(=O)[C@@]2(C)C([C@H](OC(=O)c3ccccc3)[C@]3(O)C[C@H](O)C(C)=C1C3(C)C)[C@]1(OC(C)=O)CO[C@@H]1C[C@@H]2O (stereo not given in full) ?
Reply: 1

Task item: What normalized growth value was documented for this compound, COc1ccc2c(c1)OC[C@@H](Cc1ccc(OC)c(OC)c1)[C@@H]2O ?
Reply: 0.977

Task item: What normalized growth value was documented for this compound, O=C(O)c1ccccc1OP(=O)(O)O ?
Reply: 1.01

Task item: What normalized growth value was documented for this compound, CC(C(=O)O)c1ccc2c(c1)[nH]c1ccc(Cl)cc12 (stereo not given) ?
Reply: 1

Task item: What normalized growth value was documented for this compound, COc1ccc2c(c1)OC[C@@H](Cc1ccc(OC)c(OC)c1)[C@H]2O ?
Reply: 1.01

====

Below: a set of entries, each annotated with reported normalized growth.
- assay: chemical genetic growth profiling, strain panel (AID 1159580);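 further: tested at 20 µM; growth read once vehicle control cultures reached saturation at 30 °C; 1 = growth at the plate median or of vehicle wells; lower values mean less growth of the strain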
- experimental.parameters: S. cerevisiae deletion strains, growth OD, locus YNL248C, strain rpa49, stronger effect = lower value
In all, about 5,500 compounds went through this assay and about 2,000 (36%) were called active. Roughly 18% stayed inconclusive and do not appear here. Some of the results follow.
API doc: respond with a numeric literal and nothing else, no unit.

Here's what some known entries look like.
COC1C(O)C(O)C(O)[C@@H](O)C1O (stereo partly specified): 0.976
CC[C@@H](CO)NCCN[C@@H](CC)CO: 0.996
C1CCc2nnnn2CC1: 0.994
CC(=O)OCC(CCn1cnc2cnc(N)nc21)COC(C)=O: 0.991
CC(C)N(C(=O)CCl)c1ccccc1: 0.992

Task item: What normalized growth value was documented for this molecule, CCOC(=O)c1ncn2c1CN(C)C(=O)c1cc(F)ccc1-2 ?
Reply: 0.992

====

- assay: chemical genetic growth profiling, strain panel (AID 1159580);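 further: tested at 20 µM; growth read once vehicle control cultures reached saturation at 30 °C; 1 = growth at the plate median or of vehicle wells; lower values mean less growth of the strain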
- experimental.parameters: S. cerevisiae deletion strains, growth OD, locus YLR371W, strain rom2
The campaign covered roughly 5,500 compounds. About 2,000 (36%) were called active. Another 18% or so got no clear call; they are omitted. Cut-off read from the data, not from the text of the source: active = normalized growth mostly below about 0.91 (no sharp cut-off); inconclusive = no clear call, values can overlap the other calls; inactive = mostly above about 0.92. The list shows a part of the results.
Field 'call' accepts active, inactive

Please review the following examples before continuing.
NC(N)=Nc1nc(CSCCC(N)=NS(N)(=O)=O)cs1: inactive
COc1ccc(CC2c3cc(OC)c(OC)cc3CCN2C)cc1OC (stereo not drawn): inactive
COc1ccc(-c2coc3c(OC)c(O)ccc3c2=O)cc1: inactive
CC(=O)OCC(CCn1cnc2cnc(N)nc21)COC(C)=O: inactive
CC(C)(C)CC(C)(C)c1ccc(OCCOCC[N+](C)(C)Cc2ccccc2)cc1: inactive

Task item: Just curious, what result did CC1(C)S[C@@H]2[C@H](NC(=O)[C@H](NC(=O)N3CCNC3=O)c3ccccc3)C(=O)N2C1C(=O)O (stereo partly drawn) get here?
Reply: inactive

====

- assay: chemical genetic growth profiling, strain panel (AID 1159580);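 further: tested at 20 µM; growth read once vehicle control cultures reached saturation at 30 °C; 1 = growth at the plate median or of vehicle wells; lower values mean less growth of the strain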
- experimental.parameters: S. cerevisiae deletion strains, growth OD, locus YBR171W, strain sec66, stronger effect = lower value
About 2,000 (36%) of roughly 5,500 compounds were called active. Not shown: some 18% with an inconclusive outcome. The list shows a part of the results.
quantity.name: normalized growth
API doc: respond with a numeric literal and nothing else, no unit.

CCCCOc1ccc(CC(=O)NO)cc1: 0.98
COC(=O)COc1cc(Cl)c(Cl)cc1Cl: 1.01

Task item: What normalized growth value was documented for this molecule, CC(=O)O[C@]1(C(C)=O)CCC2C3C=C(Cl)C4=CC(=O)CC[C@]4(C)C3CC[C@@]21C (stereo partly specified) ?
Reply: 1.01

Task item: What normalized growth value was documented for this molecule, Cn1cc[nH]c1=S ?
Reply: 0.99

Task item: What normalized growth value was documented for this molecule, Cc1ccc(O)cc1 ?
Reply: 1.02

Task item: What normalized growth value was documented for this molecule, COc1ccc(C(=O)c2ccccc2O)c(O)c1 ?
Reply: 0.823

Task item: What normalized growth value was documented for this molecule, COc1cccc([C@]2(O)CCCC[C@H]2CN(C)C)c1 ?
Reply: 0.962

Task item: What normalized growth value was documented for this molecule, COc1cc(O)c(C(=O)c2ccccc2)cc1O ?
Reply: 1.01

Task item: What normalized growth value was documented for this molecule, CC(=O)OCC(CCn1cnc2cnc(N)nc21)COC(C)=O ?
Reply: 0.982
